target: UniProt P08684; assay: Mechanism based inhibition of CYP3A4 assay (MBI 3A4); type: in vitro ADME; details: hydroxy-midazolam formation after 30 min vs 0 min preincubation, 25 uM, human liver microsomes
Sequence (P08684 whole entry): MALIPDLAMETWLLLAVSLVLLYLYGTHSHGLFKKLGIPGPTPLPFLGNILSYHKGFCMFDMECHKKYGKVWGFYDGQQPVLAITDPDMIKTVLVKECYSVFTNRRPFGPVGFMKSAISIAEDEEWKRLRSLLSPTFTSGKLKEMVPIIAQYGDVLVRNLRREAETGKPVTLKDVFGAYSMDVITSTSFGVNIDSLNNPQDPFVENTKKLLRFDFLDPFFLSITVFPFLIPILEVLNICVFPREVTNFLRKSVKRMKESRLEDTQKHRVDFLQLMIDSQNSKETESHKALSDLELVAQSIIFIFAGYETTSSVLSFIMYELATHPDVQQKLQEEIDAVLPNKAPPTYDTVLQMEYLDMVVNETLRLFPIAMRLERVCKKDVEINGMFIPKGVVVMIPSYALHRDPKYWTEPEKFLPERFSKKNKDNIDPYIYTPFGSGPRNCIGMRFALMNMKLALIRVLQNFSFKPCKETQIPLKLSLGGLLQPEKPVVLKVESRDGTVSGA
Reported Endpoint: MBI 3A4 (%)

C[C@H](Oc1cc(-c2ccn(C[C@@H](C)O)n2)nc(-c2noc3c2CCC[C@@]32CCCc3sc(N)c(C#N)c32)n1)[C@@H]1CCCN1C [II-117]
77
C[C@H](Oc1cc(N2CCN(C)C3(CC3)C2)nc(-c2onc3c2CCC[C@@]32CCCc3sc(N)c(C#N)c32)n1)[C@@H]1CCCN1C [I-41]
68
C[C@H](Oc1cc(-n2cncn2)nc(-c2noc3c2CCC[C@@]32CCCc3sc(N)c(C#N)c32)n1)[C@@H]1CCCN1C [II-70]
64
C[C@H](Oc1cc(N2CCC(N(C)C)CC2)nc(-c2noc3c2CCC[C@@]32CCCc3sc(N)c(C#N)c32)n1)[C@@H]1CCCN1C [II-48]
84
C[C@H](Oc1cc(-c2ccn([C@H]3CCOC3)n2)nc(-c2noc3c2CCC[C@@]32CCCc3sc(N)c(C#N)c32)n1)[C@@H]1CCCN1C [II-127]
74
C[C@H](Oc1cc(C2CCCO2)nc(-c2noc3c2CCC[C@@]32CCCc3sc(N)c(C#N)c32)n1)[C@@H]1CCCN1C (stereo partly drawn) [II-44]
71

###

Tested on: KRAS G12V-dependent Ba/F3 cells
Assay: Ba/F3 proliferation assay, KRAS G12V;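 further: proliferation IC50 in KRAS G12V-dependent Ba/F3 cells read by AlamarBlue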
Format: cell-based
Conditions: Mus musculus, BaF3, 72 h, AlamarBlue
Protocol: Plasmids containing KRASG12 mutants (i.e. […], G12C, G12V) are obtained from GeneScript. To generate KRASG12-dependent Ba/F3 models, Ba/F3 cells are transduced with retroviruses containing vectors that harbor KRASG12 isoforms. […] Compounds are added using an Access Labcyte Workstation with a Labcyte Echo 550 or 555 accoustic dispenser. […] AlamarBlue™ (ThermoFisher), a viability stain, is added and fluorescence measured in the PerkinElmer Envision HTS Multilabel Reader. […]
Reported Endpoint: IC50 (nM)

As a guide, the following entries are already answered.
[2H]C([2H])([2H])N1C[C@H](F)C[C@H]1[C@H](C)Oc1cc(N2CCNC3(CC3)C2)nc(-c2noc3c2CCC[C@@]32CCCc3sc(N)c(C#N)c32)n1 [II-208]
166
C[C@H](Oc1cc(N2C[C@H](C)N(C)[C@@H](C)C2)nc(-c2onc3c2CCC[C@@]32CCCc3sc(N)c(C#N)c32)n1)[C@@H]1CCCN1C [I-43]
302
C[C@H](Oc1cc(N2C[C@@H]3[C@@H](N)[C@@H]3C2)nc(-c2noc3c2CCC[C@@]32CCCc3sc(N)c(C#N)c32)n1)[C@@H]1CCCN1C [II-167]
879

I: C[C@H](Oc1cc(-n2cc(C(=O)N(C)C)nn2)nc(-c2noc3c2CCC[C@@]32CCCc3sc(N)c(C#N)c32)n1)[C@@H]1CCCN1C [II-132]
II: C[C@@H]1CN(c2cc(O[C@@H](C)[C@@H]3C[C@@H](F)CN3C)nc(-c3noc4c3CCC[C@@]43CCCc4sc(N)c(C#N)c43)n2)CC2(CC2)N1 [II-17]
Task item: Lower IC50: I or II ? Your choice should be expressed through its label.
Reply: I
(I: 6 nM, II: 422 nM)
